system: NCI-H522 lung; assay: NCI tumour cell line growth inhibition, 48 h
Please go through the items and note down their TGI.
Entry rule: numbers only, all in µM.

Problem: Please tell me: TGI of CCOC(=O)c1csc(NC(=O)COc2cccc(/C=C3\CSc4ccccc4C3=O)c2)n1 , system NCI-H522 lung?
Result: 1.49

Problem: Please tell me: TGI of CCCCCCN(C)Cc1ccc(OCCOc2ccc(CN(C)CCCCCC)cc2)cc1 , system NCI-H522 lung?
Result: 2.25

Problem: Please tell me: TGI of O=C(Nc1cccc(Cl)c1)c1cc(N=Nc2ccc([N+](=O)[O-])cc2Cl)ccc1O , system NCI-H522 lung?
Result: 6.95

Problem: Please tell me: TGI of O=c1[nH]c(=O)n(C/C=C/CBr)nc1Br , system NCI-H522 lung?
Result: 14.5

Problem: Please tell me: TGI of CC(C)(C)c1ccc(O)c(CN(Cc2cc(C(C)(C)C)ccc2O)C2CCCCC2)c1 , system NCI-H522 lung?
Result: 33.7

Problem: Please tell me: TGI of CC(=O)Oc1c(C)c2c(c3ccccc13)OC(C)(C)C2 , system NCI-H522 lung?
Result: 36.7

Problem: Please tell me: TGI of C=C1CC(CN2CCC(=O)NC2=O)(c2ccccc2)OC1=O (stereo unspecified) , system NCI-H522 lung?
Result: 2.17

Problem: Please tell me: TGI of CC1OC(O[C@H]2CC[C@]3(C=O)[C@H]4CC[C@]5(C)[C@H](C6=CC(=O)OC6)CC[C@]5(O)[C@@H]4C=C[C@]3(O)C2)CC(O)C1O (stereo partly specified) , system NCI-H522 lung?
Result: 0.241

Problem: Please tell me: TGI of COc1cc(/C=C\c2cc(/C=C\c3ccc(O)c(OC)c3)n(C(=O)CNc3ccc(Cl)cc3)n2)ccc1O , system NCI-H522 lung?
Result: 5.06

Problem: Please tell me: TGI of CCCCCCCCCOC(=S)NCCCCC , system NCI-H522 lung?
Result: 46.6

Problem: Please tell me: TGI of CN1CCN(Cc2ccc(NC(=O)c3cncc(C#Cc4cnn5ccccc45)c3)cc2C(F)(F)F)CC1 , system NCI-H522 lung?
Result: 2.27

Problem: Please tell me: TGI of C[C@]12CC/C(=N\OCCN3CCCCC3)C=C1CCC1C2CC[C@@]2(C)C1CC[C@]2(C)O (stereo partly specified) , system NCI-H522 lung?
Result: 7.52

Problem: Please tell me: TGI of CCCCCCCCCCCCCCCC(=O)OC1C(O)C(CO)OC(OC)C1NC(=O)N(CCCl)N=O (stereo unspecified) , system NCI-H522 lung?
Result: 23.8

Problem: Please tell me: TGI of COC(=O)C(=O)C(C(=O)C=C(C)C)C(=O)C(=O)Nc1nc2ccc([N+](=O)[O-])cc2s1 (stereo unspecified) , system NCI-H522 lung?
Result: 78.9

Problem: Please tell me: TGI of CN(C)CCNC(=O)c1cccc2ncc(-c3ccccc3)nc12 , system NCI-H522 lung?
Result: 21.1

Problem: Please tell me: TGI of CSc1ccc(C2=NN(C(C)=O)C(c3ccc(F)cc3)C2)cc1 (stereo unspecified) , system NCI-H522 lung?
Result: 34.5

Problem: Please tell me: TGI of C/C=C(/C)C(=O)OC1C=C(CO)C(=O)C(OC(=O)C(C)(O)C(C)Cl)C1C(C)C (stereo unspecified) , system NCI-H522 lung?
Result: 2.37

Problem: Please tell me: TGI of Cc1cc(C)nc(NS(=O)(=O)c2ccc(NC(=O)c3ccc(Cl)c4c(Nc5ccc(S(=O)(=O)N=C(N)N)cc5)c5ccccc5nc34)cc2)n1 , system NCI-H522 lung?
Result: 36.1

Problem: Please tell me: TGI of O=C(c1ccccc1)c1c(CC(O)c2ccccc2)n(C(=O)c2ccccc2)c2ccccc12 (stereo unspecified) , system NCI-H522 lung?
Result: 64.7
